- Test system: aortic sterol content
- protocol: Ability to decrease aortic sterol content without effecting serum sterol, cholesterol-fed cockerels
- Format: in vivo, Day-old-cockerels
- Parameters: key: Active: Compounds which produce statistically significant decreases in the aortic sterol content without having an effect on serum sterol are considered to be active
- condition details: 525 mg. test compound and 20 g. cholesterol per kg. of diet, 14 days
metric name: Result (decrease of aortic sterol content without effect on serum sterol)

1. N#Cc1ccc(NC(=S)N2CCN(c3cnccn3)CC2)cc1 | Active
2. CCNC(=S)N1CCN(c2cnccn2)CC1 | Active
3. CNC(=S)N1CCN(c2cnccn2)CC1 | Active
4. S=C(Nc1ccccc1)N1CCN(c2cnccn2)CC1 | Active

---

- study target: fatty acyl CoA:cholesterol acyl transferase (ACAT) (Rattus norvegicus)
- Construct: The supernatant, containing the microsomal fraction, served as the source of the cholesterol-esterifying enzyme; from tissue; host or cells: rat adrenals, 1000 x g supernatant containing the microsomal fraction
- Sequence (O70536 whole entry): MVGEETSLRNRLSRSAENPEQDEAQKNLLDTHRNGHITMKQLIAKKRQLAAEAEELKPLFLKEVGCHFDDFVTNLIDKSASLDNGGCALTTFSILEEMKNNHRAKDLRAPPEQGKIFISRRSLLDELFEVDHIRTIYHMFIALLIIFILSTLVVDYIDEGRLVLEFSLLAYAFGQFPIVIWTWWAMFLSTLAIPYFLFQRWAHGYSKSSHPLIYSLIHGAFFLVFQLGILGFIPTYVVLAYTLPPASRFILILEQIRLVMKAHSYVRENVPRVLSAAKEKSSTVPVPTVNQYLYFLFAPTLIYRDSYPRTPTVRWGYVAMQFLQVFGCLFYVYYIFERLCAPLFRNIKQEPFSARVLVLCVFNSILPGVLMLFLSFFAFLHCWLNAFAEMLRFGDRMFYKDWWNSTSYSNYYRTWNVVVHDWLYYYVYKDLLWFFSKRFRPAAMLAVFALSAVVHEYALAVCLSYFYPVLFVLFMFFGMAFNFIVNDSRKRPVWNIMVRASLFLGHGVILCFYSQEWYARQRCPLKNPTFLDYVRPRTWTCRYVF
- protocol: Inhibition of ACAT (fatty acyl CoA:cholesterol acyl transferase) in rat adrenal supernatant
- Format: biochemical
- condition details: rat adrenals, final concentration 5.2 μg./ml., pH 7.4, 37° C.
# inhibition at 5.2 µg/mL per record follows
# number only, unit % dropped from output

1. CC(C)c1ccc(NC(=S)N2CCN(c3cnccn3)CC2)cc1 | 56

Req: Give the reported value of inhibition at 5.2 µg/mL for this record: `S=C(NC1CCCCC1)N1CCN(c2cnccn2)CC1`
Resp: 31

Req: Input `CCNC(=S)N1CCN(c2ccc3ccccc3n2)CC1` , output reported inhibition at 5.2 µg/mL.
Resp: 48

Req: In one line, give reported inhibition at 5.2 µg/mL of the entry `S=C(NCCc1ccccc1)N1CCN(c2cnccn2)CC1` .
Resp: 33

Req: Look up and state reported inhibition at 5.2 µg/mL for `S=C(Nc1ccc(Cl)cc1)N1CCN(c2cnccn2)CC1`
Resp: 31

Req: Please indicate inhibition at 5.2 µg/mL recorded for `CCNC(=S)N1CCN(c2cncc(OC)n2)CC1`
Resp: 40
